Sourced from the supplement of paper PMC6555819

- Tested on: THRa:RXRa (NR concentration 90 nM, RXRa partner concentration 90 nM)
- procedure.summary: PBM binding z-score (relative to random genomic background probes); higher = stronger binding; sequences stand for … in GC…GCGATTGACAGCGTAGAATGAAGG
Task for the reader: assign each of the following sequences its reported PBM binding z-score.
Numbers only.

>  <construct.sequence>
CCGAGGAGGTTATGGGGCATTCAGGCAACGGTGA

>  <test.system>
THRa:RXRa (NR concentration 90 nM, RXRa partner concentration 90 nM)

>  <test.readout>
PBM binding z-score

>  <assay.result>
1.25

$$$$
>  <construct.sequence>
TCTTCTAGGTCAGTTGGTCAGCTAACGAGCTGCC

>  <test.system>
THRa:RXRa (NR concentration 90 nM, RXRa partner concentration 90 nM)

>  <test.readout>
PBM binding z-score

>  <assay.result>
2.19

$$$$
>  <construct.sequence>
TAGCCTAGATCATTGGGCCAGTATAGTACGCATC

>  <test.system>
THRa:RXRa (NR concentration 90 nM, RXRa partner concentration 90 nM)

>  <test.readout>
PBM binding z-score

>  <assay.result>
-0.832

$$$$
>  <construct.sequence>
ACTCGGAGGACAAAGGTCAAAGCTACGCCAGTGA

>  <test.system>
THRa:RXRa (NR concentration 90 nM, RXRa partner concentration 90 nM)

>  <test.readout>
PBM binding z-score

>  <assay.result>
4.03

$$$$

Look up PBM binding z-score for the entries below, preserving their order.
1. TGAATGAGGTTAAAGATCAGGGCACGTGGCGTCG
2. TCTAGTTGGTCAAAAGTCACACACTCGAAATGCG
3. ATCTCTAGGAAACAAGTTCAGTGAAAGAGAGGAC
4. CGTCAAAGTTCAAGGTAGCGTAACAGAAAGCAGC
5. AGAACGACGGCACGCTGAGTTGATAGCAGAGTAG
6. AGCACGAGGGCAATGAGTTGATAGCACGGGTGGC
7. AATACAGGGTCCCTAGGCCAGAGTAGGTACGAAT
8. CCAGCCAGGTGAAAGGTAACTCAGTCTGGTACGC

Out:
3.35
0.553
0.835
2.19
-0.601
0.817
0.106
1.55
